Origin of values: paper PMC9469097

assay: Pharmacokinetic interaction between Styrax and midazolam (i.v. and i.g.) in rats; details: male, Sprague-Dawley, rat, plasma, iv, 5 mg/kg, t1/2, rats; midazolam i.v. 5 mg/kg; pretreated with Styrax i.g. 100 mg/kg
MEASUREMENT KIND: half-life (min)
Numbers only, in min.

Q: Given the compound `Cc1ncc2n1-c1ccc(Cl)cc1C(c1ccccc1F)=NC2` , what is its reported half-life?
Ans: 31.2

###

experiment: Pharmacokinetic interaction between Styrax and midazolam (i.v. and i.g.) in rats; details: male, Sprague-Dawley, rat, plasma, iv, 5 mg/kg, Cmax, rats; midazolam i.v. 5 mg/kg; pretreated with Soybean oil
MEASUREMENT KIND: Cmax (ng/mL)
Numbers only, in ng/mL.

Q: Given the molecule `Cc1ncc2n1-c1ccc(Cl)cc1C(c1ccccc1F)=NC2` , what is its reported Cmax?
Ans: 3260
